Below, each entry is listed alongside its reported % inhibition at 10 nM.
Target: human plasma kallikrein (human, UniProt P03952 20-390; P03952 391-638)
Sequence (P03952 20-390, chain 1 of 2): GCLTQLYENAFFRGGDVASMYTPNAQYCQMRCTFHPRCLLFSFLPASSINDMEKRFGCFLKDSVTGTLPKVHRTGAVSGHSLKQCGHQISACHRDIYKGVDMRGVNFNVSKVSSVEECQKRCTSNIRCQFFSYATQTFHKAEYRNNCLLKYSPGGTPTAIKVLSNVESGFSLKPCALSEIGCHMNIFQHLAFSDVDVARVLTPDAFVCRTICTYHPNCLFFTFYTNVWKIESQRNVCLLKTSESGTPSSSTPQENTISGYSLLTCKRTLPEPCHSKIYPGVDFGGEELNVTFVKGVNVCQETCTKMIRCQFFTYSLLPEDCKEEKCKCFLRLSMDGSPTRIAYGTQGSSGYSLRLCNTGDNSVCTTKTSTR
Sequence (P03952 391-638, chain 2 of 2): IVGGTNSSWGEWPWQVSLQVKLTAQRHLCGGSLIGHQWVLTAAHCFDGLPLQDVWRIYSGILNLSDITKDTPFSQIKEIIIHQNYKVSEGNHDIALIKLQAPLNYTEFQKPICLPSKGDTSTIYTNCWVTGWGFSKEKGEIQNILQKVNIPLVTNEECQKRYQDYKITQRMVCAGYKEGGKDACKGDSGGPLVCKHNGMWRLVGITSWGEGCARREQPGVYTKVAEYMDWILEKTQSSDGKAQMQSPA
Assay: cell-based or functional assay
Answers without a unit are incomplete; give the number and then its unit.

[[record]]
binder = "M201-F11 (Fab, V domains shown) VH: EVQLLESGGGLVQPGGSLRLSCAASGFTFSHYIMMWVRQAPGKGLEWVSGIYSSGGITVYADSVKGRFTISRDNSKNTLYLQMNSLRAEDTAVYYCAYRRSGIPRRDAFDIWGQGTMVTVSS VL: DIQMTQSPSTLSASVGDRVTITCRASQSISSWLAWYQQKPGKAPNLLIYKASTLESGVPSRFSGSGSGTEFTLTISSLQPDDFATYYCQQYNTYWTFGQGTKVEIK"
meas_value = "15.7%"

[[record]]
binder = "M197-A09 (Fab, V domains shown, Tested as Fab; printed HC runs into CH1) VH: EVQLLESGGGLVQPGGSLRLSCAASGFTFSVYNMHWVRQAPGKGLEWVSSIYPSGGMTTYADSVKGRFTISRDNSKNTLYLQMNSLRAEDTAVYYCAYRRTGIPRRDAFDIWGQGTMVTVSS VL: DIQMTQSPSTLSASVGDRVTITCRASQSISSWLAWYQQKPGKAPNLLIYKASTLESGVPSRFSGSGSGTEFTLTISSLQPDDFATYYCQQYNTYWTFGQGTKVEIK"
meas_value = "94.9%"


Input line: Field request: % inhibition at 10 nM | item: M196-G12 (Fab, V domains shown) VH: EVQLLESGGGLVQPGGSLRLSCAASGFTFSNYSMDWVRQAPGKGLEWVSRIYSSGGGTIYADSVKGRFTISRDNSKNTLYLQMNSLRAEDTAVYYCAYRRTGIPRRDAFDIWGQGTMVTVSS VL: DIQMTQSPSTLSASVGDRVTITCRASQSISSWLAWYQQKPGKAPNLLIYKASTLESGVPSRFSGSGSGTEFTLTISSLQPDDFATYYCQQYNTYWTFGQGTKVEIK
Output line: 51.1%

Ref: patent US9266964
